Entry source: ChEMBL document CHEMBL1143708

- Test system: OST
- test.summary: Inhibition of proliferation of thymidine kinase deficient OST cells
- Type: functional, cell-based
- run.conditions: Homo sapiens
Parameter IC50: see the listing below.
observed.property: IC50

compound	observed.property	endpoint.value
O=c1[nH]c(=O)n([C@H]2C[C@H](O)[C@@H](CO)O2)cc1/C=C/Br	IC50	≥ 250 µM
O=c1[nH]c(=O)n([C@@H]2O[C@H](CO)[C@@H](O)C2O)cc1/C=C/Br (single isomer, unassigned)	IC50	≥ 250 µM
C[Si](C)(C)C#Cc1cn([C@@H]2O[C@H](CO)[C@@H](O)[C@@H]2O)c(=O)[nH]c1=O	IC50	≥ 176 µM
